system: TGF-β-stimulated SMAD3 phosphorylation in BEAS-2B cells; experiment: Cellular ALK5 potency assay, inhibition of TGF-β stimulated pSMAD3 formation in BEAS-2B cells; type: cell-based; conditions: Homo sapiens, inhibition of TGF-β (10 ng/mL) stimulated pSMAD3 formation, 1 hour compound incubation, read-out: BEAS2B pIC50 (converted)
// reported IC50 for each item listed

compound	assay_target	IC50
CNC(=O)C1CN(c2cnc3ccc(-c4c[nH]nc4-c4cc(Cl)ccc4F)nc3c2)CCN1C(C)C (racemic) [Compound 1-78]	TGF-β-stimulated SMAD3 phosphorylation in BEAS-2B cells	25.1 to 158 nM
Fc1ccc(Cl)cc1-c1n[nH]cc1-c1ccc2ncc(-c3nc(C(F)(F)F)n4c3CNCC4)cc2n1 [Compound 1-119]	TGF-β-stimulated SMAD3 phosphorylation in BEAS-2B cells	25.1 to 158 nM
CNC(=O)C1CN(c2cnc3ccc(-c4c[nH]nc4-c4cc(Cl)ccc4F)nc3c2)CCN1C (racemic) [Compound 1-77]	TGF-β-stimulated SMAD3 phosphorylation in BEAS-2B cells	25.1 to 158 nM
Fc1ccccc1-c1[nH]nnc1-c1ccc2ncc(-c3c[nH]nc3C(F)(F)F)cc2n1 [Compound 12-2]	TGF-β-stimulated SMAD3 phosphorylation in BEAS-2B cells	25.1 to 158 nM
CNCCn1cc(-c2cnc3ccc(-c4c[nH]nc4-c4cccc(COC)c4)nc3c2)cn1 [Compound 14-8]	TGF-β-stimulated SMAD3 phosphorylation in BEAS-2B cells	25.1 to 158 nM
Fc1cc(F)c(-c2n[nH]cc2-c2ccc3ncc(-c4nc(C(F)(F)F)n5c4CNCC5)cc3n2)cc1Cl [Compound 6-50]	TGF-β-stimulated SMAD3 phosphorylation in BEAS-2B cells	25.1 to 158 nM
COC(=O)[C@@H]1CN(c2cnc3ccc(-c4c[nH]nc4-c4cc(Cl)ccc4F)nc3c2)CCN1 [Compound 1-59]	TGF-β-stimulated SMAD3 phosphorylation in BEAS-2B cells	25.1 to 158 nM
Fc1cc(F)c(-c2n[nH]cc2-c2ccc3ncc(N4CC(N5CCCCC5)C4)cc3n2)cc1Cl [Compound 6-14]	TGF-β-stimulated SMAD3 phosphorylation in BEAS-2B cells	25.1 to 158 nM
NC1CCN(c2cnc3ccc(-c4c[nH]nc4-c4cc(Cl)ccc4F)nc3c2)C1 (stereo not drawn) [Compound 1-55]	TGF-β-stimulated SMAD3 phosphorylation in BEAS-2B cells	≤ 20 nM
Fc1ccc(Cl)cc1-c1nc2ccccn2c1-c1ccc2ncc(-c3cnc4n3CCNC4)cc2n1 [Compound 3-8]	TGF-β-stimulated SMAD3 phosphorylation in BEAS-2B cells	25.1 to 158 nM
CNC(=O)C1CN(c2cnc3ccc(-c4c[nH]nc4-c4cc(Cl)c(F)cc4F)nc3c2)CCN1 (racemic) [Compound 6-25]	TGF-β-stimulated SMAD3 phosphorylation in BEAS-2B cells	25.1 to 158 nM
COCc1cccc(-c2n[nH]cc2-c2ccc3ncc(C4=CCC(N)CC4)cc3n2)c1 (stereo not drawn) [Compound 14-12]	TGF-β-stimulated SMAD3 phosphorylation in BEAS-2B cells	25.1 to 158 nM
CNCCn1cc(-c2cnc3ccc(-c4c[nH]nc4-c4cc(Cl)ccc4F)cc3c2)cn1 [Compound 16-1]	TGF-β-stimulated SMAD3 phosphorylation in BEAS-2B cells	≤ 20 nM
CN(C)C1CC=C(c2cnc3ccc(-c4c[nH]nc4-c4ccc(F)c(F)c4)nc3c2)CC1 (stereo not drawn) [Compound 8-25]	TGF-β-stimulated SMAD3 phosphorylation in BEAS-2B cells	25.1 to 158 nM
CCOC(=O)CNCCn1cc(-c2cnc3ccc(-c4c[nH]nc4-c4cc(Cl)ccc4F)nc3c2)cn1 [Compound 1-127]	TGF-β-stimulated SMAD3 phosphorylation in BEAS-2B cells	200 to 1260 nM

Data origin, for the record: patent US11730720B2
